Data credit: a melting point compilation (Tetko et al.)

Assignment: determine reported melting point for the given compounds.
Numbers only, in °C.

compound: C#CC1(O)CCC2C3CCc4cc(O)ccc4C3C(OC)CC21C (stereo not given)
unitName: °C
melting point: 280
//
compound: CC(/N=N/c1cc(Cl)cc(Cl)c1O)=C(\Cl)C(=O)OCCOCCOCCCl
unitName: °C
melting point: 71.5
//
compound: CC(C)(C)N(NC(=O)c1ccccc1)C(=O)c1cccc(Cl)c1
unitName: °C
melting point: 180

Let's switch to this compound now.
Sure, the documented melting point for `CCCCCCCCNC` is -11

----------
Assignment: determine reported melting point for the given compounds.
One number for each entry, in °C.

A selection of reference data follows.
compound: Nc1cccc(C(F)(F)F)c1Cl
unitName: °C
melting point: 27
--
compound: O=C1Nc2ccc([N+](=O)[O-])cc2C1=O
unitName: °C
melting point: 251
--
compound: C#CCCCCCCC(=O)O
unitName: °C
melting point: 19
--
compound: CNc1ccc(NC)c2c1C(=O)c1ccccc1C2=O
unitName: °C
melting point: 220
--
compound: COC(=O)c1cnccn1
unitName: °C
melting point: 58

# batch: return melting point for each of the 4 compounds below
1. CCOC(=O)NCc1ccccc1
2. COc1ccc(C2C3=C(CCCC3)OC3=C2CCCC3)cc1
3. O=[N+]([O-])c1cc(I)cc([N+](=O)[O-])c1
4. O=C1C=CC=C2CC1=CC=CC2=O

1. 49
2. 104
3. 101
4. 147

----------
# strict inequality: melting point < 100 °C yields label 1, everything else yields label 0

compound: CCOC(=O)C1=C(C)NC(=O)NC1c1ccc(Cl)cc1 (stereo not given)
groupLabel: label 0
--
compound: CCSC(SCC)C(O)C(O)C(O)CO (stereo not given)
groupLabel: label 0

I'd appreciate it if you could check whether `C=C(C)[C@H]1CC=C(C)C(=O)C1` has melting point smaller than 100 °C.
label 1

I'd appreciate it if you could check whether O=C(O)C(O)C(F)(F)F (stereo not given) has melting point smaller than 100 °C.
label 1

I'd appreciate it if you could check whether CCOC(=O)C1=C(C)NC(C)=C(C(=O)OC)C1c1cccc([N+](=O)[O-])c1 (stereo not given) has melting point smaller than 100 °C.
label 0

I'd appreciate it if you could check whether `CC(=O)CC(C)(C)C` has melting point smaller than 100 °C.
label 1

I'd appreciate it if you could check whether ClC1=C(Cl)C2(Cl)C3C(Cl)OC(Cl)C3C1(Cl)C2(Cl)Cl (stereo not given) has melting point smaller than 100 °C.
label 0

----------
Measured melting point determines class: band A (below 70 °C), band B (70 °C to below 100 °C), band C (100 °C or more)

compound: CC(C)=NOCCOC(=O)C(C)Oc1ccc(Oc2cnc3cc(Cl)ccc3n2)cc1 (stereo unspecified)
groupLabel: band A

Could you place `Br/C(=C(/Br)c1ccccc1)c1ccccc1` in its proper category? Many thanks.
band C

Could you place `Clc1c(Cl)c(Cl)c(C(Cl)Cl)c(Cl)c1Cl` in its proper category? Many thanks.
band C

----------
Assignment: determine reported melting point for the given compounds.

compound: O=C1CCCc2c1c1c3c(ccc4c3c2CCC4)CCC1
melting point: 146 to 149 °C

# batch: return melting point for each of the 2 compounds below
1. COc1cc(F)c(Br)cc1F
2. [O-][P+](c1ccccc1)(c1ccccc1)C1Sc2ccccc2S1

1. 63 °C
2. 181 °C

# batch: return melting point for each of the 8 compounds below
1. Cc1cc(C)c(C)c(S(=O)(=O)NCC(=O)O)c1C
2. Cn1ccc2ccc(C=O)cc21
3. O=C1OS(=O)(=O)c2c(Br)c(Br)c(Br)c(Br)c21
4. CC1CCCC(C)N1C(=O)COC(=O)c1ccccc1 (stereo not given)
5. Brc1ccc(C#Cc2ccc(Br)cc2)cc1
6. COc1ccccc1C=N/N=c1/sc(C(C)=O)nn1-c1ccccc1[N+](=O)[O-]
7. CC1(C)c2cccc(P(C(C)(C)C)C(C)(C)C)c2Oc2c(P(C(C)(C)C)C(C)(C)C)cccc21
8. CCCC1COC(Cn2cncn2)(c2ccc(Cl)cc2Cl)O1 (stereo not given)

1: 167 °C; 2: 81 °C; 3: 215 to 220 °C; 4: 118 °C; 5: 182 to 184 °C; 6: 178 °C; 7: 155 °C; 8: < 25 °C

# batch: return melting point for each of the 2 compounds below
1. O=C(O)C(F)(F)C(F)(F)C(F)(F)C(F)(F)C(F)(F)C(F)(F)C(F)(F)C(F)(F)C(F)(F)C(F)(F)F
2. CC(C)(C)CC(C)(C)c1ccc(O)cc1

1: 97.9 to 100 °C; 2: 84.5 °C

# batch: return melting point for each of the 7 compounds below
1. N#Cc1cccc(C(N)=O)c1
2. CC(=O)N(c1onc(C)c1C)S(=O)(=O)c1ccc(N)cc1
3. Nc1ccc2cc3ccc(N)cc3nc2c1
4. Oc1ccc(SC(F)(F)F)cc1
5. FC(F)(F)c1ccc(N2CCNCC2)cc1
6. CCOC(=O)C(Cc1ccccc1)(Cc1ccccc1)C(C)=O
7. FC(F)(F)C(F)(Cl)Cl

["223 °C", "194 °C", "285 °C", "59 °C", "89 to 92 °C", "58 °C", "-56.6 °C"]

# batch: return melting point for each of the 2 compounds below
1. CCOC(=O)c1sc(Br)nc1C
2. COc1cc(N)c(C(C)=O)cc1OC

1. 65 to 66 °C
2. 106 °C

# batch: return melting point for each of the 3 compounds below
1. Cc1cc2cc3cc(C)[nH]c3cc2[nH]1
2. C=C(C)c1ccc(C(C)C)cc1
3. O=Cc1cccn1S(=O)(=O)c1ccccc1

1: > 170 °C; 2: -30.6 °C; 3: 76 to 77 °C

----------
melting point of 200 °C or higher: met. Under 200 °C: not met.

The examples below pair each entry with its known result.
molecule: N#CC(=CNc1ccc(O)cc1)c1ccccc1
groupLabel: not met

molecule: c1ccc(-c2cc3cc4cc(-c5ccccc5)[nH]c4cc3[nH]2)cc1
groupLabel: met

molecule: OCc1ccc(Br)cc1F
groupLabel: not met

Attention now shifts to the item below.
State whether the measured melting point reaches 200 °C, counting equality as reaching it, for `Nc1nc(=O)[nH]cc1F`
met

----------
readout: melting point (°C)
Give bare numbers, in °C.

A selection of reference data follows.
compound: c1ccc(Nc2ccccn2)nc1
melting point [°C]: 90.5
--
compound: Clc1cc(Cl)c2oc3c(Cl)c(Cl)c(Cl)cc3c2c1
melting point [°C]: 219
--
compound: CCCCC(=O)Cl
melting point [°C]: -110
--
compound: CC1(C)CC(=O)C2=C(C1)Nc1c(ccc3ccccc13)C2c1ccc(Cl)cc1 (stereo not drawn)
melting point [°C]: 139
--
compound: O=C1C=C(NCc2ccc([N+](=O)[O-])cc2)C(=O)c2ccccc21
melting point [°C]: 235
--
compound: CC1(C)SC2C(NC(=O)C(N)c3ccccc3)C(=O)N2C1C(=O)O (stereo not drawn)
melting point [°C]: 208
--
compound: C#CC1(O)CCC2C3CCC4=Cc5oncc5CC4(C)C3CCC21C (stereo not drawn)
melting point [°C]: 235
--
compound: O=C(c1ccccc1)c1ccc(Cl)c([N+](=O)[O-])c1
melting point [°C]: 105
--
compound: COc1ccc(C(=O)Oc2ccc(C(=O)/C=C/c3ccc4c(c3)OCO4)cc2)cc1
melting point [°C]: 169
--
compound: Cc1ccc(-c2onc(C(=O)c3cccs3)c2S(=O)(=O)c2ccccc2)cc1
melting point [°C]: 128

# batch: return melting point for each of the 4 compounds below
1. O=c1[nH]nc(-c2ccccc2)c(=S)n1-c1ccc(F)c(Cl)c1
2. CCC(=O)Nc1ccc(Cl)c(Cl)c1
3. NS(=O)(=O)c1cc(Cl)ccc1F
4. CCOC(=O)c1ccc2cn[nH]c2c1

[138, 92, 135, 125]

# batch: return melting point for each of the 5 compounds below
1. Cc1c(O)ccc(O)c1C
2. CC(C)CCC[C@@H](C)[C@H]1CC[C@H]2[C@@H]3CC[C@H]4C[C@H](O)CC[C@]4(C)[C@H]3CC[C@]12C
3. CC(=O)Nc1ccccc1/C=C/c1cc(/C=C/c2ccccc2)c([N+](=O)[O-])cc1[N+](=O)[O-]
4. CC(=O)O[Si](C)(C)OC(C)=O
5. c1ccc(OCc2nnc3sc(-c4cccc5ccccc45)nn23)cc1

1. 224
2. 186
3. 265
4. -12.5
5. 134

----------
Assignment: determine reported melting point for the given compounds.
Give bare numbers, in °C.

A selection of reference data follows.
compound: OCc1cc(CO)cc(OCc2cc(COc3cc(CO)cc(CO)c3)cc(COc3cc(CO)cc(CO)c3)c2)c1
melting point (°C): 144
//
compound: NC(Cc1n[nH]c2ccccc12)C(=O)O (centres undefined)
melting point (°C): 240
//
compound: CCC1COC(=O)O1 (centres undefined)
melting point (°C): -45
//
compound: COc1cc(C(=O)c2ccccc2Cl)c([N+](=O)[O-])cc1OC
melting point (°C): 122
//
compound: COc1ccc2c(c1)CC(c1ccc([N+](=O)[O-])cc1)OC2=O (centres undefined)
melting point (°C): 176
//
compound: Cc1cc(Cc2cc(C)cc(C(C)(C)C)c2O)c(O)c(C(C)(C)C)c1
melting point (°C): 123
//
compound: O=C(COC(=O)c1ccccc1)c1ccccc1
melting point (°C): 119
//
compound: CC12CCC(C(=CC(=O)O)C1=O)C2(C)C (centres undefined)
melting point (°C): 106

# batch: return melting point for each of the 2 compounds below
1. CC(F)(Cl)CCl (centres undefined)
2. COc1cc(C(c2ccc(C)s2)c2ccc(C)s2)c([N+](=O)[O-])cc1OC

1. -91.7
2. 120
